Where do the numbers come from? From ChEMBL document CHEMBL4177722.

assay: Chemical stability in 0.1 M sodium tetraborate (Na2B4O7, pH 10.0) assessed as parent compound remaining incubated for 24 hrs by LC-MS method; type: physicochemical; conditions: 0.1 M sodium tetraborate buffer, read-out: Stability
parameter: remaining at 24 h

Recorded remaining at 24 h of `Nc1ncnc2c1ccn2C1CCN(C(=O)c2ccc(S(=O)(=O)F)cc2)CC1` , please.
< 1%

====

Entries annotated with measured Kinact
Target: Calmodulin-sensitive adenylate cyclase (Bacillus anthracis)
Sequence (whole entry): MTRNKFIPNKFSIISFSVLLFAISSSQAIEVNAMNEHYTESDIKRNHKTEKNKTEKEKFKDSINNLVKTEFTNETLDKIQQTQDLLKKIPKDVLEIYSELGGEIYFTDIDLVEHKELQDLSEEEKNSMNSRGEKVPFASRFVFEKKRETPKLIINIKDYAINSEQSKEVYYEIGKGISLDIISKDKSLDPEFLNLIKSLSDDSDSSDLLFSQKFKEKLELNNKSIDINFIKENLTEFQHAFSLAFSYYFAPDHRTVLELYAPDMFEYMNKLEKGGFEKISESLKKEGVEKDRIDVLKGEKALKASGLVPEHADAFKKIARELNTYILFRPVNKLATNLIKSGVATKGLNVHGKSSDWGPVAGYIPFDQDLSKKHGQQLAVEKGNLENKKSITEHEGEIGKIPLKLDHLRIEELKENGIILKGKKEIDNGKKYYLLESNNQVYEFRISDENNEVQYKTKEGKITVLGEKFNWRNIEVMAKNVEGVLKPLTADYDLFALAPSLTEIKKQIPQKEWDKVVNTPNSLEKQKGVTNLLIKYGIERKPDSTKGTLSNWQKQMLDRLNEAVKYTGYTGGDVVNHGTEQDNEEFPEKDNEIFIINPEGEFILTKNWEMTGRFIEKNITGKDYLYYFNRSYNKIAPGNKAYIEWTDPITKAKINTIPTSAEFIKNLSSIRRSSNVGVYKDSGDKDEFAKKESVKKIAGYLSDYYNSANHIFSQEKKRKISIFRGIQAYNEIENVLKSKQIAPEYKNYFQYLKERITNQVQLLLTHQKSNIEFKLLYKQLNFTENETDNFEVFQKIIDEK
Assay: Inactivation of Bacillus anthracis edema factor assessed as inactivation rate constant in presence of CaM incubated for 10 to 240 mins by EnzChek pyrophosphate assay
Response body: numeric value in min⁻¹, unit text excluded.

The cases that follow already have their Kinact on record.
Cc1nc(N)c2cnn(C3CCN(Cc4ccc(S(=O)(=O)F)cc4)CC3)c2n1; 0.052
Nc1cc(OCCCNC(=O)c2ccc(S(=O)(=O)F)cc2)ccn1; 0.043

So what does the record say about Kinact for `Nc1ncnc2c1ncn2[C@@H]1CCCN(C(=O)c2ccc(S(=O)(=O)F)cc2)C1` ?
0.039

====

The entries below are paired with their reported Ratio.
Biological target: Calmodulin-sensitive adenylate cyclase (Bacillus anthracis)
Sequence (whole entry): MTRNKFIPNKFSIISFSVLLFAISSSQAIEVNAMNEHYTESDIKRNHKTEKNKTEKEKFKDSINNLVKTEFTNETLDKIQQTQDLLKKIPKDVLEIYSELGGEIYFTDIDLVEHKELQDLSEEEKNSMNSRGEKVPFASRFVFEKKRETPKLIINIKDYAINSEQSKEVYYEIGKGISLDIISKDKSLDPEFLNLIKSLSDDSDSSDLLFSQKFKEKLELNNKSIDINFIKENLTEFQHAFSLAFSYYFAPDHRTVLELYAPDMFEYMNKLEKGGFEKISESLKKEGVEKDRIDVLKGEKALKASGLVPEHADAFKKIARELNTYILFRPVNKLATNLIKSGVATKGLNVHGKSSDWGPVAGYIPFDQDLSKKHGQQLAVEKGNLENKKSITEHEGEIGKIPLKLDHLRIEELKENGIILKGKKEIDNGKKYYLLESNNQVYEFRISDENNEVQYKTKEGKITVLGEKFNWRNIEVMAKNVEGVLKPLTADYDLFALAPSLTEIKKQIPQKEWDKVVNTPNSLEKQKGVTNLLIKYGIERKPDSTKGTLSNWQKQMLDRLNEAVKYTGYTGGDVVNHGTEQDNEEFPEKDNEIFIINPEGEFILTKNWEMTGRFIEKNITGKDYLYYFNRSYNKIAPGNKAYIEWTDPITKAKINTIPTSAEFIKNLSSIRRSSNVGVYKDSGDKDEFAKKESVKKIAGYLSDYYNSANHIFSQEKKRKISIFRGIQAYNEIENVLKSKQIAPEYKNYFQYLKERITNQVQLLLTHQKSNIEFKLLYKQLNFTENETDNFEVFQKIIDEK
Assay: Inactivation of Bacillus anthracis edema factor assessed as Kinact/Ki ratio in presence of CaM incubated for 10 to 240 mins by EnzChek pyrophosphate assay
Give your answer as a number; write no unit.

Solved entries:
Nc1ncnc2c1ncn2[C@@H]1O[C@H](COC(=O)c2ccc(S(=O)(=O)F)cc2)[C@@H](O)[C@H]1O; 13.4
Cc1nc(N)c2ncn(C3CCN(C(=O)c4ccc(S(=O)(=O)F)cc4)CC3)c2n1; 62.8
Cc1nc(N)c2cnn(C3CCN(C(=O)c4ccc(S(=O)(=O)F)cc4)CC3)c2n1; 581
Cc1nc(N)c2cnn(CCCNC(=O)c3ccc(S(=O)(=O)F)cc3)c2n1; 58
Nc1cc(OCCNC(=O)c2ccc(S(=O)(=O)F)cc2)ccn1; 3.6

I'm curious: which Ratio was measured for `Nc1cc(OCCCNC(=O)c2ccc(S(=O)(=O)F)cc2)ccn1` tested on Calmodulin-sensitive adenylate cyclase (Bacillus anthracis)?
8.1

Query for Calmodulin-sensitive adenylate cyclase (Bacillus anthracis): what Ratio does the record show for `Nc1cc(OCc2ccc(S(=O)(=O)F)cc2)ccn1` ?
3.5

Please tell me: Ratio of `Nc1cc(OCCCNCc2ccc(S(=O)(=O)F)cc2)ccn1` , system Calmodulin-sensitive adenylate cyclase (Bacillus anthracis)?
4.7

Quick check: Ratio on Calmodulin-sensitive adenylate cyclase (Bacillus anthracis), item `Cc1nc(N)cc(OCCNC(=O)c2ccc(S(=O)(=O)F)cc2)n1` ?
9.2

Entry `Nc1cc(O[C@@H]2CCN(C(=O)c3ccc(S(=O)(=O)F)cc3)C2)ccn1` , system Calmodulin-sensitive adenylate cyclase (Bacillus anthracis): what Ratio was measured?
3.5
